// data source = PubChem BioAssay AID624129

Biological target: Apelin receptor (Homo sapiens) (UniProt P35414)
Test: potency against CXCR6 with APJ panel – cell-based, beta-arrestin, DiscoveRx, uHTS hits, dose response (AID 624129)
Details: CXCR6 beta-arrestin (DiscoveRx) antagonist cell assay, APJ, run 3, dose range 1
pIC50: −log10 of the molar value.
Mark 0 for pIC50 values under 5, and 1 for everything at or above.

CHEMICAL STRUCTURE	STUDY TARGET	QUALITATIVE LABEL
Cc1ccc(C(=O)/C=C/C(=O)c2ccc(C)cc2)cc1	Apelin receptor (Homo sapiens) (UniProt P35414)	0
O=C1C=CC(=O)N1c1cccc(-c2ccccc2)c1	Apelin receptor (Homo sapiens) (UniProt P35414)	0
Oc1cccc2ccc(/C=C/c3c(F)cccc3Cl)nc12	Apelin receptor (Homo sapiens) (UniProt P35414)	0
Nc1cc(Cl)c2nonc2c1[N+](=O)[O-]	Apelin receptor (Homo sapiens) (UniProt P35414)	0

Can `O=C(CSc1cccc2cccnc12)N/N=C/c1cccnc1` be said to have pIC50 at or above 5?
1

One more compound: `O=[N+]([O-])c1c(Nc2cccc(O)c2)cc(Cl)c2nonc12`
0

One more compound: `Cc1ccc2oc(/N=C(\N)NC(=O)C(C)(C)C)nc2c1`
0

One more compound: `COc1ccc([N+](=O)[O-])c(S(=O)(=O)c2ccc(Cl)cc2)n1`
0

One more compound: `COc1ccc([N+](=O)[O-])c(S(=O)(=O)c2ccccc2)n1`
0

One more compound: `CN(C)C(=O)CSc1cccc2cccnc12`
0

One more compound: `Cc1cccc(C(=O)Nc2ccc(C(=O)/C=C/c3ccncc3)cc2)c1`
0

One more compound: `CCCCCCCCn1sccc1=O`
1

* * *

Target: UniProt:P35414
Assay: potency against CXCR6 with APJ panel – cell-based, beta-arrestin, DiscoveRx, uHTS hits, dose response (AID 624129)
Conditions: CXCR6 beta-arrestin (DiscoveRx) antagonist cell assay, APJ, dose range 1
Active and inactive are the calls of the source. The rule behind the calls is not given here.
Give one outcome, nothing more. List: True = active, False = inactive

Worked examples follow.
MOLECULE	QUALITATIVE LABEL
C=CS(=O)(=O)c1c2cc(OC)ccc2nc2ccc(OC)cc12	True
C/C(=N\NC(=O)Cn1c(-c2ccccn2)nc2ccccc21)c1ccccc1	True
O=Cc1s/c(=N\S(=O)(=O)c2ccccc2)n(CCCCl)c1Cl	True
Cc1ccnc(N2C(=O)c3cccc4c([N+](=O)[O-])ccc(c34)C2=O)c1	True
FC(F)(F)c1cnc(NNC(=S)Nc2ccc(Cl)cc2)c(Cl)c1	True
COc1cc(/C=C/c2ccc3cccc(O)c3n2)cc(OC)c1OC	True
C=C1C(=O)OC2C1CCC(C)=C1C(=O)C3OC3(C)C12 (configuration not stated)	True
O=[N+]([O-])c1cc2oc3c(c2c(C=NCc2ccccc2)c1O)CCCC3	True

// param item: `O=[N+]([O-])c1c(Nc2cccc(O)c2)cc(Cl)c2nonc12` ; yields the recorded call
True

One more molecule: Cc1ccc(CN2C(=O)C(Cc3ccccc3)Nc3ncnc(N4CCN(c5ccccc5)CC4)c32)cc1 (configuration not stated)
True

One more molecule: `CC(=NNc1nc2ccccc2s1)c1ncccn1`
True

One more molecule: `O=C(OCn1ncc(Cl)c(Cl)c1=O)c1cccc(C(F)(F)F)c1`
True

One more molecule: COc1cc(C(=O)NC2CC3CCCC(C2)N3CC(=O)Nc2ccccc2)cc(OC)c1OC (configuration not stated)
False

One more molecule: `CCS(=O)(=O)c1ncc(Cl)c(C(=O)Nc2ccc(S(=O)(=O)N3CCC(C)CC3)cc2)n1`
True

One more molecule: `O=c1oc2ccccc2c(Cl)c1CN1CCCCC1`
True

One more molecule: `Cc1ccc(C(=O)Sc2cccccc2=O)cc1`
True

One more molecule: CCC1CCCCN1S(=O)(=O)c1ccc(NC(=O)c2nc(S(C)(=O)=O)ncc2Cl)cc1 (configuration not stated)
True

One more molecule: `COc1ccc(OC)c(NC(=O)c2nc(S(=O)(=O)Cc3ccccc3)ncc2Cl)c1`
True

One more molecule: `CCCCCCN1C=C/C(=C\C=C(C#N)C#N)c2ccccc21`
True

One more molecule: `O=C(Nc1cccc(C(F)(F)F)c1)Oc1ccc(Cl)c2cccnc12`
True

One more molecule: CCS(=O)(=O)c1ncc(Cl)c(C(=O)Nc2ccc(S(=O)(=O)N3CCCC(C)C3)cc2)n1 (configuration not stated)
True

One more molecule: `C/C(=N/NC(=O)c1ccc(C(C)(C)C)cc1)c1ccccn1`
True

* * *

Exercise: state measured IC50 for each of the compounds provided.
Molecular target: C-X-C chemokine receptor type 6 (Homo sapiens)
Assay: potency against CXCR6 with APJ panel – cell-based, beta-arrestin, DiscoveRx, uHTS hits, dose response (AID 624129)
Conditions: CXCR6 beta-arrestin (DiscoveRx) antagonist cell assay, CXCR6, run 2, dose range 1

Before answering, review these 5 worked examples.
COMPOUND	IC50
O=[N+]([O-])c1c(Nc2ccccc2O)cc(Cl)c2nonc12	9.03 µM
Cc1ccc(NC(=S)N/N=C/c2ccc([N+](=O)[O-])s2)cc1	8.89 µM
Oc1cccc2ccc(/C=C/c3c(F)cccc3Cl)nc12	6.67 µM
CCOC(=O)c1c(SCCN2CCCCC2)n(-c2ccccc2)c(=S)n(-c2ccccc2)c1=O	6.03 µM
CC(C)(C)c1ccc(-n2nc(C#N)c(Cl)cc2=O)cc1	8.56 µM

Dear colleague, could you please provide IC50 for the compounds listed below?
1. CC(Oc1ccc(Br)cc1)C(=O)Nc1nc(-c2ccccn2)cs1 (configuration not stated)
2. COc1ccc(C(=O)/C=C/C(=O)N(CC(=O)NC2CCCCC2)CC2CCCO2)c(O)c1 (configuration not stated)

1. 6.13 µM
2. > 80 µM

* * *

Exercise: state measured IC50 for each of the compounds provided.
Target: Apelin receptor (Homo sapiens)
Experiment: potency against CXCR6 with APJ panel – cell-based, beta-arrestin, DiscoveRx, uHTS hits, dose response (AID 624129)
Settings: CXCR6 beta-arrestin (DiscoveRx) antagonist cell assay, APJ, dose range 1
The source made the active and inactive calls. No rule for the calls is given here.

Before answering, review these 5 worked examples.
COMPOUND	RESULT
C/C(=N\NC(=O)COc1ccccc1-c1ccccc1)c1ccccn1	2.32 µM
S=C(N/N=C/c1ccccc1)N1CCOCC1	6.85 µM
O=C(CN1CCN(S(=O)(=O)c2ccc(Br)cc2)CC1)Nc1ccc2c(c1)OCO2	21.8 µM
CC(C)c1ccc(O)c(NC(=S)NC(=O)c2cccnc2)c1	8.65 µM
C=C1CC(COc2ccc3c(C)c(Cl)c(=O)oc3c2)(c2ccccc2)OC1=O (stereo unspecified)	> 80 µM (inactive)

Moving on to the next compound.
Using the record for `CNC(=O)c1nnsc1S(=O)(=O)c1ccc(Cl)cc1` , report its IC50.
14.3 µM

* * *

Target: UniProtKB O00574
Sequence (O00574 whole entry, looked up): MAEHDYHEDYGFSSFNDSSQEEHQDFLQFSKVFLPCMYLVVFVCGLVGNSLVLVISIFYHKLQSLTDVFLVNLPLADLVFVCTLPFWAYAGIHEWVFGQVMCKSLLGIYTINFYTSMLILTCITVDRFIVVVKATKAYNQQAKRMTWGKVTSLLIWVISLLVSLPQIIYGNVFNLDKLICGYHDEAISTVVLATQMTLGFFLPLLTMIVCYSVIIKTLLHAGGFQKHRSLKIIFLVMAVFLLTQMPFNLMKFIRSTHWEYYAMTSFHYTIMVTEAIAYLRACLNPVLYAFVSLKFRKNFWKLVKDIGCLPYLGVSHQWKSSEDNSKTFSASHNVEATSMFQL
Assay: potency against CXCR6 with APJ panel – cell-based, beta-arrestin, DiscoveRx, uHTS hits, dose response (AID 624129)
Conditions: CXCR6 beta-arrestin (DiscoveRx) antagonist cell assay, CXCR6, run 2, dose range 1
pIC50: −log10 of the molar value.
REPORTED PROPERTY: pIC50

Before answering, review these 6 worked examples.
COMPOUND	pIC50
Cc1c(CCCl)c(Cl)n2c(nc3ccccc32)c1C#N	< 4.10
CC(=O)OCCCNc1cc(Sc2ccc(C)cc2)c2nonc2c1[N+](=O)[O-]	< 4.10
FC(F)(F)c1cnc(NNC(=S)Nc2ccccc2Cl)c(Cl)c1	< 4.10
COc1ccc(Nc2ccc([N+](=O)[O-])c3nonc23)c(OC)c1	< 4.10
CN(C(=O)CSC1=Nc2ccccc2C2=NC(c3ccccc3)C(=O)N12)C1CCCCC1 (configuration not stated)	< 4.10
Cc1cccc(C(=O)Nc2ccc(C(=O)/C=C/c3ccncc3)cc2)c1	< 4.10

Using the record for COc1ccc(N2C(=O)CC(Sc3nnnn3-c3ccc(F)cc3)C2=O)cc1 (configuration not stated) , report its pIC50.
< 4.10

* * *

Molecular target: Apelin receptor (Homo sapiens) (UniProt P35414)
Assay: potency against CXCR6 with APJ panel – cell-based, beta-arrestin, DiscoveRx, uHTS hits, dose response (AID 624129)
Conditions: CXCR6 beta-arrestin (DiscoveRx) antagonist cell assay, APJ, run 3, dose range 1
Classification by IC50 | ranges: range 1: < 6 µM; range 2: ≥ 6 µM and < 10 µM; range 3: ≥ 10 µM

Worked examples follow.
COMPOUND	QUALITATIVE LABEL
CC(=O)Nc1ccc(NC(=O)c2nc(S(=O)(=O)Cc3cccc(C)c3)ncc2Cl)cc1	range 2
C=CS(=O)(=O)c1ccc(Oc2ccc(S(=O)(=O)C=C)cc2)cc1	range 3
O=C1C=CC(=O)N1c1ccc(-c2nc3ccccc3o2)cc1	range 3
O=C(CSc1nc(-c2ccco2)cc(C(F)(F)F)n1)NCCCn1ccnc1	range 3
Cn1c(O)c(C2=NNC(c3ccc(Cl)cc3)C2)c(=O)n(C)c1=O (configuration not stated)	range 2
O=C(c1nnsc1S(=O)c1ccc(Cl)cc1)N1CCOCC1 (configuration not stated)	range 3

Could you place `O=C(C#Cc1ccccc1)c1ccc([N+](=O)[O-])cc1` in its proper category? Many thanks.
range 1

One more compound: C=C1C(=O)C23CCC4C(C)(C(=O)OC)CCCC4(C)C2CCC1(O)C3 (configuration not stated)
range 2
